- measured target: protein phosphatase specific protein methylesterase (MEase) (Homo sapiens)
- Construct: made in house
- Sequence (Q9Y570 1-386): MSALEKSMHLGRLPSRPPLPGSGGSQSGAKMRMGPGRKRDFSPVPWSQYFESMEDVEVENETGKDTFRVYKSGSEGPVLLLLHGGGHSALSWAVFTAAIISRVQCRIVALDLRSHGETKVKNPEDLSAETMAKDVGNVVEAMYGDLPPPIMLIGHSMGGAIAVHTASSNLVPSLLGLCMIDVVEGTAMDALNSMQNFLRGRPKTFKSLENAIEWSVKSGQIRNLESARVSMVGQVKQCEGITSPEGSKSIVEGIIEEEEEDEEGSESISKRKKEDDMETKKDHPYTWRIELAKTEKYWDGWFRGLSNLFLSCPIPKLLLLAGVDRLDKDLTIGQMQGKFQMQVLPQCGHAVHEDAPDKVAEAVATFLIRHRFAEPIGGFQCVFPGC
- assay overview: PP2A demethylation with [3H]-SAM and purified proteins (methylesterase activity)
- Type: biochemical
- condition parameters: purified methylated PP2A and MEase; read-out: ME (IC50)
For each entry below, report its IC50 value.

| compound structure string | IC50 |
| --- | --- |
| CCCCCCCCCCCCCCCCCCCC(=O)NCCc1c[nH]c2ccc(F)cc12 | < 10 µM |
| CCCCCCCCCCCCCCCC(=O)NCCc1c[nH]c2ccc(O)cc12 | > 100 µM |

Kindly review the next compound as well.
The observed IC50 for CCCCCCCCCCCCCCCCCCCCCC(=O)NCCc1c[nH]c2ccc(O)cc12 when tested with protein phosphatase specific protein methylesterase (MEase) (Homo sapiens) stands at 10 to 100 µM

###

- measured target: protein phosphatase specific protein methylesterase (MEase) (Homo sapiens, UniProt Q9Y570)
- Construct: made in house
- assay overview: PP2A demethylation with [3H]-SAM and purified proteins (methylesterase activity)
- Type: biochemical
pIC50: −log10 of the molar value.
readout kind: pIC50

The measured pIC50 associated with CCCCCCCCCCCCCCCCCCCC(=O)N(C)CCc1c[nH]c2ccccc12 reads < 4.00

###

For each entry below, report its IC50 value.
- measured target: PP2A (Homo sapiens, UniProt P67775)
- Construct: made in house
- Sequence (P67775 whole entry): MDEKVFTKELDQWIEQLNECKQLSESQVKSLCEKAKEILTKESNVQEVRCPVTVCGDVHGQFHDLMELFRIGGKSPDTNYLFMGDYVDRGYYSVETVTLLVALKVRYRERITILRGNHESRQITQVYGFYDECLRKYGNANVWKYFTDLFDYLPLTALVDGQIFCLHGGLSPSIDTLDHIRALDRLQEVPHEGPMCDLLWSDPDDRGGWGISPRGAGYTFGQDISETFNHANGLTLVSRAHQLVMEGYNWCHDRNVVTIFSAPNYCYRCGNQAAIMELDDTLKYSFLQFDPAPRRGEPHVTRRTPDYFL
- Sequence (P30153 whole entry partner): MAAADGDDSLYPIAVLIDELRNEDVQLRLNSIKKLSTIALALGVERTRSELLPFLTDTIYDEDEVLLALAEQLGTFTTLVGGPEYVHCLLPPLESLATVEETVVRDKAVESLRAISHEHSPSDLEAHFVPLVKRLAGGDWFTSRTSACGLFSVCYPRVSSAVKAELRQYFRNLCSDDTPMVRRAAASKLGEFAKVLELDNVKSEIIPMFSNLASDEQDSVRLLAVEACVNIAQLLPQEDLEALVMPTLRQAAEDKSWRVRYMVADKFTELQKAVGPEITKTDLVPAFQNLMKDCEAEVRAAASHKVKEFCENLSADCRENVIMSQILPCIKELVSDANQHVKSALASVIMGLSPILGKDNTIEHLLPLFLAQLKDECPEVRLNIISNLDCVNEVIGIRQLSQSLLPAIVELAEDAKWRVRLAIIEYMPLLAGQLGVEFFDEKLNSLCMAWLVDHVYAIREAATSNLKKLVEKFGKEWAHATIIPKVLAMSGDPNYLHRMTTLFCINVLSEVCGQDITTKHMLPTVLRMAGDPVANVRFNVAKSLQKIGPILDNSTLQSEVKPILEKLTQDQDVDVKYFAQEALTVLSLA
- assay overview: Phosphatase activity of PP2A using pNPP as substrate
- Type: biochemical
- condition parameters: un-methylated PP2A, non-protein substrate pNPP, absence of ME and MT

In the examples that follow, each entry is paired with its recorded IC50.
| compound | measured target | readout kind | value |
| --- | --- | --- | --- |
| CCCCCCCCCCCCCCCCCCCC(=O)NCCc1c[nH]c2ccccc12 [Compound I-64, N-(2-(1H-indol-3-yl)ethyl) icosanamide] | PP2A (Homo sapiens, UniProt P67775) | IC50 | > 100 µM |
| CCCCCCCCCCCCCCCCCC(=O)NCCc1c[nH]c2ccccc12 [Compound I-65, N-(2-(1H-indol-3-yl)ethyl)stearamide] | PP2A (Homo sapiens, UniProt P67775) | IC50 | > 100 µM |
| CCCCCCCCCCCCCCCCCCCC(=O)NCCc1c[nH]c2ccc(OC(C)=O)cc12 | PP2A (Homo sapiens, UniProt P67775) | IC50 | 10 to 100 µM |

The measured IC50 associated with CCCCCCCCCCCCCCCCNC(=O)NCCc1c[nH]c2ccc(O)cc12 reads 10 to 100 µM

###

- measured target: PP2A (Homo sapiens, UniProt P67775)
- Construct: made in house
- assay overview: Phosphatase activity of PP2A using pNPP as substrate
- Format: biochemical
- condition parameters: un-methylated PP2A, non-protein substrate pNPP, absence of ME and MT
pIC50: −log10 of the molar value.
For each entry below, report its pIC50 value.

In the examples that follow, each entry is paired with its recorded pIC50.
| compound | value |
| --- | --- |
| CCCCCCCCCCCCCCCCCC(=O)NCCc1c[nH]c2ccc(O)cc12 | 4.00 to 5.00 |
| CCCCCCCCCC(=O)NCCc1c[nH]c2ccc(O)cc12 | < 4.00 |
| CCCCCCCCCCCCCCCCCCNC(=O)Cc1c[nH]c2ccc(O)cc12 | 4.00 to 5.00 |
| CCCCCCCCCCCCCCCCCCCC(=O)NCCc1c[nH]c2ccc(F)cc12 | 4.00 to 5.00 |
| CCCCCCCCCCCCCCCCCCCC(=O)N(C)CCc1c[nH]c2ccccc12 | < 4.00 |

# per-item lookup of pIC50; items listed below
1. CCCCCCCCCCCCCCCCCCC(=O)NCCc1c[nH]c2ccc(O)cc12
2. CCCCCCC(O)CCCCCCCCCCC(=O)NCCc1c[nH]c2ccc(O)cc12 (stereo not shown)
3. CCCCCCCCCCCCCCCCCCCCCC(=O)NCCc1c[nH]c2ccc(O)cc12
4. CCCCCCCCCCCCCCCCCCNC(=O)NC(Cc1c[nH]c2ccc(O)cc12)C(=O)O (stereo not shown)
5. CCCCCCCCCCCCCCCCCCNC(=O)NCCc1c[nH]c2ccc(O)cc12
6. CCCCCCCCCCCCCCCCCCCC(=O)NCCc1c[nH]c2ccc(C)cc12
7. CCCCCCCCCCCCCCCCNC(=O)C(Cc1c[nH]c2ccccc12)NC(=O)OC(C)(C)C (stereo not shown)

Ans:
4.00 to 5.00
> 5.00
4.00 to 5.00
< 4.00
4.00 to 5.00
4.00 to 5.00
4.00 to 5.00

###

- measured target: protein phosphatase specific protein methylesterase (MEase) (Homo sapiens, UniProt Q9Y570)
- Construct: made in house
- assay overview: PP2A demethylation with [3H]-SAM and purified proteins (methylesterase activity)
- Format: biochemical
- condition parameters: purified methylated PP2A and MEase; read-out: ME (IC50)
For each entry below, report its IC50 value.

# per-item lookup of IC50; items listed below
1. CCCCCCCCCCCCCCCCCCNC(=O)Cc1c[nH]c2ccc(O)cc12
2. CCCCCCCCCCCCCCCCNC(=O)NC(Cc1c[nH]c2ccc(O)cc12)C(=O)O (centres unmarked)
3. CCCCCCC(O)CCCCCCCCCCC(=O)NCCc1c[nH]c2ccc(O)cc12 (centres unmarked)
4. CCCCCCCCCCCCCCCCCCNC(=O)NCCc1c[nH]c2ccc(O)cc12
5. CCCCCCCCCCCCCCCCCCCC(=O)NCCc1c[nH]c2ccc(OC(C)=O)cc12

Ans:
1: < 10 µM; 2: < 10 µM; 3: 10 to 100 µM; 4: < 10 µM; 5: < 10 µM

# per-item lookup of IC50; items listed below
1. CCCCCCCCCCCCCCCCNC(=O)C(Cc1c[nH]c2ccccc12)NC(=O)OC(C)(C)C (centres unmarked)
2. CCCCCCCCCCCCCCCCCCCC(=O)NCCc1c[nH]c2ccc(C)cc12
3. CCCCCCCCCCCCCCCCCCCC(=O)NCCc1c[nH]c2ccc(OC(=O)CCC(=O)O)cc12

Ans:
["< 10 µM", "10 to 100 µM", "< 10 µM"]

###

- measured target: protein phosphatase specific protein methylesterase (MEase) (Homo sapiens)
- Construct: made in house
- assay overview: PP2A demethylation with [3H]-SAM and purified proteins (methylesterase activity)
- Type: biochemical
- condition parameters: purified methylated PP2A and MEase; read-out: ME (IC50)
readout kind: IC50

In the examples that follow, each entry is paired with its recorded IC50.
| compound | readout kind | value |
| --- | --- | --- |
| CCCCCCCCCCCCCCCCCCCC(=O)NCCc1c[nH]c2ccccc12 [Compound I-64, N-(2-(1H-indol-3-yl)ethyl) icosanamide] | IC50 | < 10 µM |
| CCCCCCCCCCCCCCCCCC(=O)NCCc1c[nH]c2ccc(O)cc12 [Compound I-66] | IC50 | < 10 µM |

# per-item lookup of IC50; items listed below
1. CCCCCCCCCCCCCCCCCCCC(=O)NCCc1c[nH]c2ccc(O)cc12 [Compound I-63]
2. CCCCCCCCCCCCCCCCCCC(=O)NCCc1c[nH]c2ccc(O)cc12 [Compound I-67]
3. CCCCCCCCCC(=O)NCCc1c[nH]c2ccc(O)cc12 [Compound I-77]
4. CCCCCCCCCCCCCCCCNC(=O)NCCc1c[nH]c2ccc(O)cc12 [Compound I-30]
5. CCCCCCCCCCCCCCCCCCNC(=O)NC(Cc1c[nH]c2ccc(O)cc12)C(=O)O (centres unmarked) [Compound I-79]

Ans:
["< 10 µM", "> 100 µM", "> 100 µM", "< 10 µM", "10 to 100 µM"]

The measured IC50 associated with CCCCCCCCCCCCCCCCCC(=O)NCCc1c[nH]c2ccccc12 [Compound I-65, N-(2-(1H-indol-3-yl)ethyl)stearamide] reads < 10 µM

###

- measured target: PP2A (Homo sapiens, UniProt P67775)
- Construct: made in house
- assay overview: Phosphatase activity of PP2A using phosphorylase a as substrate
- Type: biochemical
- condition parameters: un-methylated PP2A, protein substrate phosphorylase a, absence of ME and MT
pIC50: −log10 of the molar value.
readout kind: pIC50

In the examples that follow, each entry is paired with its recorded pIC50.
| compound | value |
| --- | --- |
| CCCCCCCCCCCCCCCCCC(=O)NCCc1c[nH]c2ccccc12 [Compound I-65, N-(2-(1H-indol-3-yl)ethyl)stearamide] | 4.00 to 5.00 |
| CCCCCCCCCCCCCCCCCCNC(=O)NCCc1c[nH]c2ccc(O)cc12 [Compound I-31] | 4.00 to 5.00 |
| CCCCCCC(O)CCCCCCCCCCC(=O)NCCc1c[nH]c2ccc(O)cc12 (centres unmarked) [Compound I-29] | < 4.00 |
| CCCCCCCCCCCCCCCCCCCC(=O)NCCc1c[nH]c2ccccc12 [Compound I-64, N-(2-(1H-indol-3-yl)ethyl) icosanamide] | 4.00 to 5.00 |
| CCCCCCCCCCCCCCCCCCCC(=O)NCCc1c[nH]c2ccc(OC(=O)CCC(=O)O)cc12 [Compound I-32] | 4.00 to 5.00 |

# per-item lookup of pIC50; items listed below
1. CCCCCCCCCCCCCCCCCCNC(=O)Cc1c[nH]c2ccc(O)cc12 [Compound I-39]
2. CCCCCCCCCCCCCCCCNC(=O)NCCc1c[nH]c2ccc(O)cc12 [Compound I-30]

Ans:
4.00 to 5.00
4.00 to 5.00

The measured pIC50 associated with CCCCCCCCCCCCCCCCCCCC(=O)NCCc1c[nH]c2ccc(C)cc12 [Compound I-36] reads < 4.00
